test system: 317291-083-R-J1-PDC complex spheroid growth; test: Anticancer human tumor 317291-083-R-J1-PDC patient-derived soft tissue sarcoma cell line growth inhibition [Asc]; settings: second compound 1 µM; first compound 0.0316 µM; hits give low values;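 further: compound exposure lasted seven days after spheroids formed for three days; 100% = DMSO vehicle control wells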
REPORTED_PROPERTY: viability, T/C (%)
Unit % implied. Number only.

{"MOLECULE": "COc1c(OCCCN2CCOCC2)ccc2c3n(c(=NC(=O)c4cnc(N)nc4)nc12)CCN3 + CNC(C)C(=O)NC1CN(S(=O)(=O)c2cccc(S(=O)(=O)N3CCC4CCC(C(=O)NC(c5ccccc5)c5ccccc5)N4C(=O)C(NC(=O)C(C)NC)C3)c2)CCC2CCC(C(=O)NC(c3ccccc3)c3ccccc3)N2C1=O", "RESULT_UNITS": "%", "REPORTED_VALUE": 27.2}

Query :: Could you tell me which viability, T/C is on file for CCN1CCN(Cc2ccc(Nc3ncc(F)c(-c4cc(F)c5nc(C)n(C(C)C)c5c4)n3)nc2)CC1 + Cc1c(S(C)(=O)=O)c(-c2cc(F)cc(N3CCN(c4ccc(NS(=O)(=O)c5ccc(NC(CCN6CCC(C(=O)OCCCP(=O)(O)O)CC6)CSc6ccccc6)c(S(=O)(=O)C(F)(F)F)c5)cc4)CC3)c2)c(-c2ccc(Cl)cc2)n1C(C)C ?
Result :: 67.8

Query :: Fill in: viability, T/C of C=CC(=O)N1CCN(c2nc(=O)n(-c3c(C)ccnc3C(C)C)c3nc(-c4c(O)cccc4F)c(F)cc23)C(C)C1 (stereo not drawn) + Cc1c(S(C)(=O)=O)c(-c2cc(F)cc(N3CCN(c4ccc(NS(=O)(=O)c5ccc(NC(CCN6CCC(C(=O)OCCCP(=O)(O)O)CC6)CSc6ccccc6)c(S(=O)(=O)C(F)(F)F)c5)cc4)CC3)c2)c(-c2ccc(Cl)cc2)n1C(C)C is ___
Result :: 81.5

Query :: Suppose we examine the molecule NC1CCC(NC2CC2c2ccccc2)CC1 (stereo not drawn) + CNC(C)C(=O)NC1CN(S(=O)(=O)c2cccc(S(=O)(=O)N3CCC4CCC(C(=O)NC(c5ccccc5)c5ccccc5)N4C(=O)C(NC(=O)C(C)NC)C3)c2)CCC2CCC(C(=O)NC(c3ccccc3)c3ccccc3)N2C1=O ; what viability, T/C value has been reported?
Result :: 46.1

Query :: Entry under review: O=C(c1ccc(F)c(F)c1Nc1ccc(I)cc1F)N1CC(O)([C@@H]2CCCCN2)C1 + CNC(C)C(=O)NC1CN(S(=O)(=O)c2cccc(S(=O)(=O)N3CCC4CCC(C(=O)NC(c5ccccc5)c5ccccc5)N4C(=O)C(NC(=O)C(C)NC)C3)c2)CCC2CCC(C(=O)NC(c3ccccc3)c3ccccc3)N2C1=O . Reported viability, T/C?
Result :: 37.9

Query :: Need viability, T/C, item C=C(F)C(=O)N1CCN(c2nc(OCC3CCCN3C)nc3c2CCN(c2cccc4cccc(Cl)c24)C3)CC1CC#N (stereo not drawn) + Cc1c(S(C)(=O)=O)c(-c2cc(F)cc(N3CCN(c4ccc(NS(=O)(=O)c5ccc(NC(CCN6CCC(C(=O)OCCCP(=O)(O)O)CC6)CSc6ccccc6)c(S(=O)(=O)C(F)(F)F)c5)cc4)CC3)c2)c(-c2ccc(Cl)cc2)n1C(C)C
Result :: 87.5

Query :: I'd like to know its viability, T/C. The molecule in question is C=CC(=O)N1CCN(c2nc(=O)n(-c3c(C)ccnc3C(C)C)c3nc(-c4c(O)cccc4F)c(F)cc23)C(C)C1 (stereo not drawn) + CNC(C)C(=O)NC1CN(S(=O)(=O)c2cccc(S(=O)(=O)N3CCC4CCC(C(=O)NC(c5ccccc5)c5ccccc5)N4C(=O)C(NC(=O)C(C)NC)C3)c2)CCC2CCC(C(=O)NC(c3ccccc3)c3ccccc3)N2C1=O
Result :: 49

Query :: Which value of viability, T/C has been reported for CCN1CCN(Cc2ccc(Nc3ncc(F)c(-c4cc(F)c5nc(C)n(C(C)C)c5c4)n3)nc2)CC1 + CNC(C)C(=O)NC1CN(S(=O)(=O)c2cccc(S(=O)(=O)N3CCC4CCC(C(=O)NC(c5ccccc5)c5ccccc5)N4C(=O)C(NC(=O)C(C)NC)C3)c2)CCC2CCC(C(=O)NC(c3ccccc3)c3ccccc3)N2C1=O in the records?
Result :: 36.6

Query :: I am curious: what viability, T/C value has been reported for CNC(C)C(=O)NC1CN(S(=O)(=O)c2cccc(S(=O)(=O)N3CCC4CCC(C(=O)NC(c5ccccc5)c5ccccc5)N4C(=O)C(NC(=O)C(C)NC)C3)c2)CCC2CCC(C(=O)NC(c3ccccc3)c3ccccc3)N2C1=O (stereo not drawn) + Cc1c(S(C)(=O)=O)c(-c2cc(F)cc(N3CCN(c4ccc(NS(=O)(=O)c5ccc(NC(CCN6CCC(C(=O)OCCCP(=O)(O)O)CC6)CSc6ccccc6)c(S(=O)(=O)C(F)(F)F)c5)cc4)CC3)c2)c(-c2ccc(Cl)cc2)n1C(C)C ?
Result :: 55

Query :: Query (molecule): NC1CCC(NC2CC2c2ccccc2)CC1 (stereo not drawn) + Cc1c(S(C)(=O)=O)c(-c2cc(F)cc(N3CCN(c4ccc(NS(=O)(=O)c5ccc(NC(CCN6CCC(C(=O)OCCCP(=O)(O)O)CC6)CSc6ccccc6)c(S(=O)(=O)C(F)(F)F)c5)cc4)CC3)c2)c(-c2ccc(Cl)cc2)n1C(C)C ; field requested: viability, T/C
Result :: 107

Query :: # lookup: viability, T/C of Cn1ncnc1[C@H]1c2n[nH]c(=O)c3cc(F)cc(c23)N[C@@H]1c1ccc(F)cc1 + Cc1c(S(C)(=O)=O)c(-c2cc(F)cc(N3CCN(c4ccc(NS(=O)(=O)c5ccc(NC(CCN6CCC(C(=O)OCCCP(=O)(O)O)CC6)CSc6ccccc6)c(S(=O)(=O)C(F)(F)F)c5)cc4)CC3)c2)c(-c2ccc(Cl)cc2)n1C(C)C
Result :: 63.2

Query :: Please report the recorded viability, T/C for C#Cc1c(F)ccc2cc(O)cc(-c3ncc4c(N5CC6CCC(C5)N6)nc(OCC56CCCN5CC(F)C6)nc4c3F)c12 (stereo not drawn) + Cc1c(S(C)(=O)=O)c(-c2cc(F)cc(N3CCN(c4ccc(NS(=O)(=O)c5ccc(NC(CCN6CCC(C(=O)OCCCP(=O)(O)O)CC6)CSc6ccccc6)c(S(=O)(=O)C(F)(F)F)c5)cc4)CC3)c2)c(-c2ccc(Cl)cc2)n1C(C)C .
Result :: 90.7

Query :: Fill in the blank: the reported viability, T/C of COc1c(OCCCN2CCOCC2)ccc2c3n(c(=NC(=O)c4cnc(N)nc4)nc12)CCN3 + Cc1c(S(C)(=O)=O)c(-c2cc(F)cc(N3CCN(c4ccc(NS(=O)(=O)c5ccc(NC(CCN6CCC(C(=O)OCCCP(=O)(O)O)CC6)CSc6ccccc6)c(S(=O)(=O)C(F)(F)F)c5)cc4)CC3)c2)c(-c2ccc(Cl)cc2)n1C(C)C is ____.
Result :: 63.2
